- assay.info: Solubility in gastric juice or intestinal juice model fluid (precipitation method using DMSO)
- Format: physicochemical
- measurement.context: pH 1.2, simulated gastric fluid, kinetic from dmso stock, 1st fluid for Disintegration Test of Japanese Pharmacopoeia (pH: 1.2), room temperature, read-out: Solubility (μg/mL) 1st fluid

>  <compound>
COc1cc(-c2cnc(C3CCCC3)[nH]2)ccc1OCc1ncc(C(F)(F)F)cc1F

>  <reading.qualifier>
=

>  <solubility at 24 h [µg/mL]>
79.2

$$$$
>  <compound>
COc1cc(OCc2c(F)cc(C(F)(F)F)c[n+]2[O-])ccc1-c1cnc(-c2ccc(F)nc2)[nH]1

>  <reading.qualifier>
=

>  <solubility at 24 h [µg/mL]>
94.4

$$$$
>  <compound>
COc1c(OCc2ccc(C(F)(F)F)nc2)ccc(-c2cnc(C3CCC(F)(F)CC3)[nH]2)c1OC

>  <reading.qualifier>
>

>  <solubility at 24 h [µg/mL]>
99

$$$$
>  <compound>
COc1cc(OCc2cnc(C)cn2)ccc1-c1nc(-c2ccc(F)nc2)[nH]c1Cl

>  <reading.qualifier>
=

>  <solubility at 24 h [µg/mL]>
84.3

$$$$
>  <compound>
COc1cc(OCc2ccc(Br)cc2F)ccc1-c1c[nH]c(-c2ccccn2)n1

>  <reading.qualifier>
=

>  <solubility at 24 h [µg/mL]>
42.8

$$$$
>  <compound>
COc1cc(OCc2cccc(C#N)n2)ccc1-c1[nH]c(C2CCC(F)(F)CC2)nc1Cl

>  <reading.qualifier>
=

>  <solubility at 24 h [µg/mL]>
23.2

$$$$
>  <compound>
COc1cc(-c2c[nH]c(C3CCCCCC3)n2)cc(OC)c1OCc1ccc(C(F)(F)F)cn1

>  <reading.qualifier>
=

>  <solubility at 24 h [µg/mL]>
53.6

$$$$
>  <compound>
COc1cc(OCc2ncc(C(F)(F)F)cc2F)ccc1-c1[nH]c(C2CCC2)nc1Cl

>  <reading.qualifier>
=

>  <solubility at 24 h [µg/mL]>
88.3

$$$$
>  <compound>
COc1cc(OCc2ncc(Cl)cc2F)ccc1-c1cnc(-c2ccc(Cl)nc2)[nH]1

>  <reading.qualifier>
=

>  <solubility at 24 h [µg/mL]>
20.6

$$$$
>  <compound>
COCCOc1cc(OCc2ccc(C(F)(F)F)cn2)ccc1-c1c[nH]c(-c2ccc(Cl)nc2)n1

>  <reading.qualifier>
=

>  <solubility at 24 h [µg/mL]>
3

$$$$
>  <compound>
COc1cc(O[C@@H](C)c2ccc(C(F)(F)F)nc2)ccc1-c1[nH]c(-c2ccc(F)nc2)nc1Cl

>  <reading.qualifier>
=

>  <solubility at 24 h [µg/mL]>
9.9

$$$$
>  <compound>
COc1cc(OCc2coc(C)n2)ccc1-c1cnc(C2CCC(F)(F)CC2)[nH]1

>  <reading.qualifier>
>

>  <solubility at 24 h [µg/mL]>
81

$$$$
>  <compound>
COc1cc(-c2[nH]c(C3CCC(F)(F)CC3)nc2Br)ccc1OCc1ncc(C(F)(F)F)cc1F

>  <reading.qualifier>
=

>  <solubility at 24 h [µg/mL]>
110

$$$$
>  <compound>
COc1cc(-c2c[nH]c(-c3ccc(F)nc3)n2)ccc1OCc1ncccc1F

>  <reading.qualifier>
=

>  <solubility at 24 h [µg/mL]>
44.7

$$$$
>  <compound>
COc1cc(OCc2cccc(C#N)n2)ccc1-c1c[nH]c(-c2ccc(Cl)nc2)n1

>  <reading.qualifier>
=

>  <solubility at 24 h [µg/mL]>
8.8

$$$$
>  <compound>
COc1cc(OCc2cccc(C#N)n2)ccc1-c1c[nH]c(C2CCCCC2)n1

>  <reading.qualifier>
>

>  <solubility at 24 h [µg/mL]>
78

$$$$
>  <compound>
COc1cc(O[C@@H](C)c2ccc(C(F)(F)F)cc2)ccc1-c1[nH]c(-c2ccc(F)nc2)nc1Cl

>  <reading.qualifier>
<

>  <solubility at 24 h [µg/mL]>
0.3

$$$$
>  <compound>
COc1cc(OCc2ccc(C(F)(F)F)nc2)ccc1-c1nc(-c2ccc(Cl)cn2)[nH]c1C

>  <reading.qualifier>
=

>  <solubility at 24 h [µg/mL]>
5.9

$$$$
>  <compound>
COc1cc(OCc2ncc(Br)cc2F)ccc1-c1cnc(-c2ccc(Cl)nc2)[nH]1

>  <reading.qualifier>
=

>  <solubility at 24 h [µg/mL]>
27.6

$$$$
>  <compound>
COc1cc(O)ccc1-c1cnc(C2CCC(F)(F)CC2)[nH]1

>  <reading.qualifier>
>

>  <solubility at 24 h [µg/mL]>
62

$$$$
>  <compound>
COc1cc(-c2c[nH]c(C3CCCC3)n2)ccc1OCc1ccc(C(F)(F)F)cn1

>  <reading.qualifier>
>

>  <solubility at 24 h [µg/mL]>
83

$$$$
>  <compound>
COc1cc(OCc2coc(C)n2)ccc1-c1c[nH]c(-c2ccc(Cl)nc2)n1

>  <reading.qualifier>
=

>  <solubility at 24 h [µg/mL]>
76.7

$$$$
>  <compound>
COc1cc(OCc2ccc(C(F)(F)F)nc2)ccc1-c1[nH]c(C2CC(F)(F)C2)nc1Cl

>  <reading.qualifier>
=

>  <solubility at 24 h [µg/mL]>
93.4

$$$$
>  <compound>
COc1cc(OCc2ccc(C(F)(F)F)cn2)ccc1-c1c[nH]c(-c2cccc(N3CCCC3)n2)n1

>  <reading.qualifier>
=

>  <solubility at 24 h [µg/mL]>
6.9

$$$$
>  <compound>
COc1cc(OC(C)c2cccc(C(F)(F)F)n2)ccc1-c1cnc(-c2ccc(F)nc2)[nH]1 (centres unmarked)

>  <reading.qualifier>
=

>  <solubility at 24 h [µg/mL]>
17.1

$$$$
>  <compound>
COc1cc(-c2c[nH]c(-c3ccc(F)nc3)n2)ccc1OCc1ccc(C(F)(F)F)cn1

>  <reading.qualifier>
=

>  <solubility at 24 h [µg/mL]>
23.1

$$$$
>  <compound>
COc1cc(OCc2ncc(C(F)(F)F)cc2Cl)ccc1-c1cnc(-c2ccc(F)nc2)[nH]1

>  <reading.qualifier>
=

>  <solubility at 24 h [µg/mL]>
5.9

$$$$
>  <compound>
COc1cc(OCc2ncc(Br)cc2F)ccc1-c1[nH]c(-c2ccc(F)nc2)nc1Cl

>  <reading.qualifier>
=

>  <solubility at 24 h [µg/mL]>
10

$$$$
>  <compound>
COc1cc(OCc2cccc(C(F)(F)F)n2)ccc1-c1cnc(-c2ccc(F)nc2)[nH]1

>  <reading.qualifier>
=

>  <solubility at 24 h [µg/mL]>
21.1

$$$$
>  <compound>
COCn1cc(-c2ccc(OCc3ccc(C(F)(F)F)cn3)cc2OC)nc1-c1ccc(F)nc1

>  <reading.qualifier>
>

>  <solubility at 24 h [µg/mL]>
98

$$$$
>  <compound>
COc1cc(OCc2ncc(C(F)(F)F)cc2F)ccc1-c1[nH]c(-c2ccc(F)nc2)nc1CO

>  <reading.qualifier>
=

>  <solubility at 24 h [µg/mL]>
37

$$$$
>  <compound>
COc1cc(OCc2ccc(C(F)(F)F)nc2)ccc1-c1nc(-c2ccc(Cl)nc2)n(C)c1Br

>  <reading.qualifier>
=

>  <solubility at 24 h [µg/mL]>
108

$$$$
